Reference source: patent US9662310B2

Biological target: TAFIa (Homo sapiens (Human), UniProt Q96IY4)
Sequence (Q96IY4 115-423): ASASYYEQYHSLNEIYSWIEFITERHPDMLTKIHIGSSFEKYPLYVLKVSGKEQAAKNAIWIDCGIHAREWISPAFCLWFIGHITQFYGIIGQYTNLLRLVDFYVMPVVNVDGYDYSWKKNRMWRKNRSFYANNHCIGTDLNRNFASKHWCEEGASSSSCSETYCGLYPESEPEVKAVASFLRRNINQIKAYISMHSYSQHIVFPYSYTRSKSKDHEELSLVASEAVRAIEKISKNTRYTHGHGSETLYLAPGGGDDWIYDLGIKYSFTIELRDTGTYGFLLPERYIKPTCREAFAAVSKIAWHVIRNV
Test: Determination of TAFIa enzyme inhibitory activity (FAAK substrate degradation)
Type: biochemical
Settings: TAFI activated with human thrombin / rabbit lung thrombomodulin; substrate FAAK, absorbance at 330 nm; read-out: TAFIa IC50
Where a name gives a salt, the structure may show the parent alone.
observed-property: pIC50
Note on pIC50: it is the negative log10 of concentration, concentration in mol/L.

query: Determine its reported pIC50: NCCC[C@H]1C[C@]1(C(=O)O)c1cn(-c2ccc(F)c(F)c2)cn1 (relative stereo) [Example 17]
result: 7.21

query: Determine its reported pIC50: CC(CN)C[C@H]1C[C@]1(C(=O)O)c1cn(-c2ccccc2)cn1 (relative stereo) [Example 32]
result: 7.46

query: Determine its reported pIC50: NCCC[C@H]1C[C@]1(C(=O)O)c1cn(-c2cccs2)cn1 (relative stereo) [Example 37, dihydrochloride]
result: 7.00

query: Determine its reported pIC50: NCCC[C@H]1C[C@]1(C(=O)O)c1cn(-c2cccc3ccccc23)cn1 (relative stereo) [Example 47]
result: 7.27

query: Determine its reported pIC50: NCCC[C@H]1C[C@]1(C(=O)O)c1cn(-c2ccc3ccccc3c2)cn1 (relative stereo) [Example 21]
result: 7.57

query: Determine its reported pIC50: N#Cc1ccc(-n2cnc([C@@]3(C(=O)O)C[C@@H]3CCCN)c2)cc1 (relative stereo) [Example 40]
result: 7.54

query: Determine its reported pIC50: NCCC[C@H]1C[C@]1(C(=O)O)c1cn(-c2ccc3ccccc3n2)cn1 (relative stereo) [Example 42]
result: 7.24

query: Determine its reported pIC50: NCCC[C@H]1C[C@]1(C(=O)O)c1cn(-c2ccncc2)cn1 (relative stereo) [Example 23, hydrochloride]
result: 6.77

query: Determine its reported pIC50: Cc1ccnc(-n2cnc([C@@]3(C(=O)O)C[C@@H]3CCCN)c2)c1 (relative stereo) [Example 64]
result: 7.72

query: Determine its reported pIC50: NCCC[C@H]1C[C@]1(C(=O)O)c1cn(-c2cc3ccccc3cn2)cn1 (relative stereo) [Example 46]
result: 7.80

query: Determine its reported pIC50: NCCC[C@H]1C[C@]1(C(=O)O)c1cn(-c2ccc(C(F)(F)F)cc2)cn1 (relative stereo) [Example 13]
result: 6.85

query: Determine its reported pIC50: Cc1ccc(-n2cnc([C@@]3(C(=O)O)C[C@@H]3CC(C)CN)c2)cc1 (relative stereo) [Example 33]
result: 7.41

query: Determine its reported pIC50: CC[C@@H](CN)C[C@H]1C[C@]1(C(=O)O)c1cn(-c2ccccc2)cn1 [Example 62]
result: 8.10

query: Determine its reported pIC50: NCCC[C@H]1C[C@]1(C(=O)O)c1cn(-c2cccc(F)c2)cn1 (relative stereo) [Example 22]
result: 7.40
